Ref: PubChem BioAssay AID2060912

Each record here notes measured viability, T/C.
Tested on: HUVEC/MSC spheroids viability
Test: Human HUVEC/MSC cell line growth inhibition [KRAS2];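 note: percent of DMSO vehicle control luminescence so 100% = untreated viability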
Conditions: second compound 0.0316 µM; first compound 0.01 µM; stronger effect = lower value
From the text: Multicellular complex tumor spheroid response to RAS pathway inhibitors in combination with a targeted agents in patient-derived cell lines with oncogenic KRAS variants from multiple cancer types A high-throughput screen of multi-cell type tumor spheroids was designed to identify active combinations of targeted small molecules and KRAS pathway inhibitors. […] Compounds. […] If the clinical Cmax for an agent had not been determined, the highest concentration tested was 10 microM. […]
State just the number; it will be interpreted in %.

Worked examples, 2 compounds total:
compound="CC(C)n1nc(-c2ccc3oc(N)nc3c2)c2c(N)ncnc21 + CC1OCC2(CCN(c3cnc(Sc4ccnc(N)c4Cl)c(N)n3)CC2)C1N" systemtested="HUVEC/MSC spheroids viability" reportedresult=53.5
compound="CN(C)C/C=C/C(=O)Nc1cc2c(Nc3ccc(F)c(Cl)c3)ncnc2cc1O[C@H]1CCOC1 + CC1OCC2(CCN(c3cnc(Sc4ccnc(N)c4Cl)c(N)n3)CC2)C1N" systemtested="HUVEC/MSC spheroids viability" reportedresult=103

In the following, a different compound is considered.
-- ask Entry CCN1CCN(Cc2ccc(Nc3ncc(F)c(-c4cc(F)c5nc(C)n(C(C)C)c5c4)n3)nc2)CC1 + COc1cc2nc(C)nc(NC(C)c3cc(N)cc(C(F)(F)F)c3)c2cc1OC1CCOC1 has what viability, T/C?
-- reply 77

====

test system: HUVEC/MSC spheroids viability; test: Human HUVEC/MSC cell line growth inhibition [KRAS2]; conditions: second compound 3 µM; first compound 0.316 µM; stronger effect = lower value;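 note: percent of DMSO vehicle control luminescence so 100% = untreated viability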
Each record here notes measured viability, T/C.
State just the number; it will be interpreted in %.

compound="COc1cc(Nc2ncc3c(n2)-c2ccc(Cl)cc2C(c2c(F)cccc2OC)=NC3)ccc1C(=O)O + C=CC(=O)N1CCN(c2nc(OCC3CCCN3C)nc3c2CCN(c2cccc4cccc(C)c24)C3)CC1CC#N" assayendpoint="viability, T/C" uom=% reportedresult=96.4
compound="CC1OCC2(CCN(c3cnc(Sc4ccnc(N)c4Cl)c(N)n3)CC2)C1N (stereo not drawn) + C=CC(=O)N1CCN(c2nc(OCC3CCCN3C)nc3c2CCN(c2cccc4cccc(C)c24)C3)CC1CC#N" assayendpoint="viability, T/C" uom=% reportedresult=48

In the following, a different compound is considered.
-- ask Request body: readout viability, T/C, system HUVEC/MSC spheroids viability, query CCN1CCN(Cc2ccc(Nc3ncc(F)c(-c4cc(F)c5nc(C)n(C(C)C)c5c4)n3)nc2)CC1 + C=CC(=O)N1CCN(c2nc(OCC3CCCN3C)nc3c2CCN(c2cccc4cccc(C)c24)C3)CC1CC#N . Return the value.
-- reply 158

====

Tested on: HUVEC/MSC spheroids viability
Assay: Human HUVEC/MSC cell line growth inhibition [KRAS2];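 note: percent of DMSO vehicle control luminescence so 100% = untreated viability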
Conditions: second compound 0.0949 µM; first compound 0.0316 µM; stronger effect = lower value
Text: Multicellular complex tumor spheroid response to RAS pathway inhibitors in combination with a targeted agents in patient-derived cell lines with oncogenic KRAS variants from multiple cancer types A high-throughput screen of multi-cell type tumor spheroids was designed to identify active combinations of targeted small molecules and KRAS pathway inhibitors. […] Compounds. […] If the clinical Cmax for an agent had not been determined, the highest concentration tested was 10 microM. […]
Each record here notes measured viability, T/C.
State just the number; it will be interpreted in %.

compound="COC(=O)c1ccc2c(C(=Nc3ccc(N(C)C(=O)CN4CCN(C)CC4)cc3)c3ccccc3)c(O)[nH]c2c1 + C=CC(=O)N1CCN(c2nc(OCC3CCCN3C)nc3c2CCN(c2cccc4cccc(C)c24)C3)CC1CC#N" systemtested="HUVEC/MSC spheroids viability" uom=% reportedresult=76
compound="CN(C)C/C=C/C(=O)Nc1cc2c(Nc3ccc(F)c(Cl)c3)ncnc2cc1O[C@H]1CCOC1 + C=CC(=O)N1CCN(c2nc(OCC3CCCN3C)nc3c2CCN(c2cccc4cccc(C)c24)C3)CC1CC#N" systemtested="HUVEC/MSC spheroids viability" uom=% reportedresult=82.9
compound="CC(C)n1nc(-c2ccc3oc(N)nc3c2)c2c(N)ncnc21 + C=CC(=O)N1CCN(c2nc(OCC3CCCN3C)nc3c2CCN(c2cccc4cccc(C)c24)C3)CC1CC#N" systemtested="HUVEC/MSC spheroids viability" uom=% reportedresult=41.1
compound="CCNC(=O)CC1N=C(c2ccc(Cl)cc2)c2cc(OC)ccc2-n2c(C)nnc21 (stereo not given) + C=CC(=O)N1CCN(c2nc(OCC3CCCN3C)nc3c2CCN(c2cccc4cccc(C)c24)C3)CC1CC#N" systemtested="HUVEC/MSC spheroids viability" uom=% reportedresult=73.3

In the following, a different compound is considered.
-- ask Request body: readout viability, T/C, system HUVEC/MSC spheroids viability, query COc1cc2nccc(Oc3ccc(NC(=O)C4(C(=O)Nc5ccc(F)cc5)CC4)cc3)c2cc1OC + C=CC(=O)N1CCN(c2nc(OCC3CCCN3C)nc3c2CCN(c2cccc4cccc(C)c24)C3)CC1CC#N . Return the value.
-- reply 82.5
